Test system: PDC-DUC18828
Test: cell viability relative to DMSO control (compound alone) (fraction); higher = less growth inhibition
Details: 1 µM; 72 h
Where a name gives a salt, the structure may show the parent alone. Over roughly 2,000 compounds, “cell viability relative to DMSO control (compound alone)” has its median near 0.98; the lowest 2% begin near 0.23. The sample holds the lowest values, similar compounds and a random draw of the others, so the mix is not that of the screen.
readout label: cell viability

Completed entries (count: 2):
- CCc1nc(-c2cccc(C)c2)c(-c2ccnc(NC(=O)c3ccccc3)c2)s1: 0.946
- Nc1nc(N)c2nc(-c3cccc(O)c3)cnc2n1: 0.791

Field request: cell viability | item: "CC(C)n1nc(-c2ccc3oc(N)nc3c2)c2c(N)ncnc21"
0.203

Field request: cell viability | item: O=C1c2cccc(O)c2C(=O)c2c(O)cc(CO)cc21 [Aloe-emodin]
1.06

Field request: cell viability | item: O=C1c2c(O)ccc(O)c2C(=O)c2c(NCCNCCO)ccc(NCCNCCO)c21 [Mitoxantrone]
0.243

Field request: cell viability | item: "CC(C)n1nc(-c2cc3cc(O)ccc3[nH]2)c2c(N)ncnc21"
0.347

Field request: cell viability | item: "CC(=O)O/N=C1\C(=O)N(Cc2cc(Cl)ccc2Cl)c2ccc(Cl)cc21"
0.949

Field request: cell viability | item: O=C(C=Cc1ccccc1)NC(NC(=S)Nc1ccc(Cl)cc1)C(Cl)(Cl)Cl (stereo not given)
0.969

Field request: cell viability | item: CCCCN(Cc1ccc(C(=O)NO)cc1)C(=O)Nc1ccccc1 [Nexturastat A]
0.942

Field request: cell viability | item: CN1CCc2c(c3ccccc3n2Cc2ccc(C(=O)NO)cc2)C1 [Tubastatin A HCl]
1.03

====

System: PDC-DUC18828
Assay: cell viability relative to DMSO control (compound alone) (fraction); higher = less growth inhibition
Details: 1 µM; 72 h
Over roughly 2,000 compounds, “cell viability relative to DMSO control (compound alone)” has its median near 0.98; the lowest 2% begin near 0.23. This is one part of a sample in which the lowest values are shown more often than they occur.
Listed here are molecules together with their documented cell viability.
Write the value as a bare number.

* COc1ccc(-c2nc(N3CCOCC3)c3sc(CN(C)c4ncc(C(=O)NO)cn4)cc3n2)cn1 | 0.0525
* Cc1c(CN2CCN(C(=O)[C@H](C)O)CC2)sc2c(N3CCOCC3)nc(-c3cnc(N)nc3)nc12 | 0.616
* CS(=O)(=O)N1CCN(Cc2cc3nc(-c4cccc5[nH]ncc45)nc(N4CCOCC4)c3s2)CC1 | 0.921

The record that follows has no cell viability shown yet.
Requested read-out cell viability, target or system PDC-DUC18828, entry COc1cc([C@@H]2c3cc4c(cc3[C@@H](O[C@@H]3O[C@@H]5CO[C@@H](c6cccs6)O[C@H]5[C@H](O)[C@H]3O)[C@H]3COC(=O)[C@H]23)OCO4)cc(OC)c1O [Teniposide]
0.189

====

Test system: PDC-DUC18828
Test: cell viability relative to DMSO control (compound alone) (fraction); higher = less growth inhibition
Details: 1 µM; 72 h
Counter-ions that a name gives are not always drawn. The full ranking holds about 2,000 compounds; the median of “cell viability relative to DMSO control (compound alone)” is about 0.98, and the lowest 2% start at about 0.23. Many of the other results were omitted from the sample, so the lowest values are more common in it than they were.
Assign labels as follows, please: 1 for cell viability below 0.5; 0 for cell viability equal to or exceeding 0.5.

Previously resolved entries follow.
* COc1ccc(Cn2ccc3ccc(C(=O)NO)cc32)cc1 | 0
* CNCc1ccc(-c2cc(-c3nc(-c4ccc(S(=O)(=O)C(C)C)cc4)cnc3N)on2)cc1 | 0
* COC1=CC(c2cc3ccccc3[nH]2)=N/C1=C\c1[nH]c(C)cc1C [Obatoclax Mesylate (GX15-070)] | 1
* Cc1ccc(S(=O)(=O)c2ccc([N+](=O)[O-])o2)cc1 | 1
* O=C(O)CCC(=O)Nc1ccc(Br)cn1 [Bikinin] | 0

# strict comparison: is reported cell viability < 0.5? input = "CN(CC(=O)N(Cc1ccc(C2CCCCC2)cc1)c1ccc(C(=O)O)cc1)S(=O)(=O)c1c(F)c(F)c(F)c(F)c1F"
0

# strict comparison: is reported cell viability < 0.5? input = C[C@H]1O[C@@H](Oc2c(-c3cc(O)c(O)c(O)c3)oc3cc(O)cc(O)c3c2=O)[C@@H](O)[C@@H](O)[C@@H]1O [Myricitrin]
0

# strict comparison: is reported cell viability < 0.5? input = "COc1ccc2[nH]cc(/C=C3\C(=O)Nc4ccc(NC(=O)CCN5CCCCC5)cc43)c2c1"
0

# strict comparison: is reported cell viability < 0.5? input = "COc1ccc(S(=O)(=O)Nc2cccnc2Nc2ccc(O)cc2)cc1"
1

# strict comparison: is reported cell viability < 0.5? input = Nc1ccc(-c2ccc3ncc4ccc(=O)n(-c5cccc(C(F)(F)F)c5)c4c3c2)cn1 [Torin 2]
1

# strict comparison: is reported cell viability < 0.5? input = "Cn1c(N2CCCCS2(=O)=O)nc(C(=O)NCc2ccc(F)cc2)c(O)c1=O"
0

# strict comparison: is reported cell viability < 0.5? input = "CCC(CC)(NC(=O)C(C)C)C(=O)N[C@@H](CCCN=C(N)N)C(=O)NC1(C(=O)NC(c2ccc(F)cc2)c2ccc(F)cc2)CCCC1"
0

# strict comparison: is reported cell viability < 0.5? input = NC(=O)N/N=C/c1ccc([N+](=O)[O-])o1 [Nitrofural]
0

# strict comparison: is reported cell viability < 0.5? input = "CCN(CC)CCN(Cc1ccc(-c2ccc(C(F)(F)F)cc2)cc1)C(=O)Cn1c(SCc2ccc(F)cc2)nc(=O)c2c1CCC2"
0

# strict comparison: is reported cell viability < 0.5? input = Nc1nc(Cl)nc2c1ncn2[C@H]1C[C@H](O)[C@@H](CO)O1 [Cladribine]
1

# strict comparison: is reported cell viability < 0.5? input = "Cc1[nH]nc2ccc(-c3cncc(OC[C@@H](N)Cc4ccccc4)c3)cc12"
0

# strict comparison: is reported cell viability < 0.5? input = "CCCCOc1ccc(C(=O)Nc2ccc(F)cc2F)cc1"
0

# strict comparison: is reported cell viability < 0.5? input = Nc1nc(Cl)nc2c1ncn2[C@@H]1O[C@H](CO)[C@@H](O)[C@@H]1F [Clofarabine]
1

====

Test system: PDC-DUC18828
Assay: cell viability relative to DMSO control (compound alone) (fraction); higher = less growth inhibition
Details: 1 µM; 72 h
The full ranking holds about 2,000 compounds; the median of “cell viability relative to DMSO control (compound alone)” is about 0.98, and the lowest 2% start at about 0.23. Only a selection was taken, and the lowest values are over-represented in it overall.
Assign labels as follows, please: yes (1) for cell viability below 0.9; no (0) for cell viability equal to or exceeding 0.9.

Previously resolved entries follow.
* CN(C)Cc1ccc(S(=O)(=O)n2ccc(/C=C/C(=O)NO)c2)cc1 | no (0)
* CC(NC(=O)C(Cc1ccccc1)NC(=O)OCc1ccccc1)C(=O)CF (stereo not drawn) | no (0)
* CC(C)C[C@@H](C=O)NC(=O)[C@H](CC(C)C)NC(=O)[C@H](CC(C)C)NC(=O)OCc1ccccc1 | yes (1)
* CCCC[C@@H](C=O)NC(=O)[C@H](CC(C)C)NC(=O)OCc1ccccc1 | no (0)
* Cc1nc2ccc(-n3ncc(C(=O)c4cc5ccccc5[nH]4)c3N)cc2[nH]1 | yes (1)

Switching to the query record.
# strict comparison: is reported cell viability < 0.9? input = "CNc1nc(Nc2cnn([C@H]3CCN(C4COC4)C[C@@H]3F)c2Cl)ncc1C(F)(F)F"
no (0)

====

Tested on: PDC-DUC18828
Experiment: cell viability relative to DMSO control (compound alone) (fraction); PDC-DUC18828 is a patient-derived cholangiocarcinoma cell line; higher = less growth inhibition
Conditions: 1 µM; 72 h
Whole data set: some 2,000 compounds, median “cell viability relative to DMSO control (compound alone)” near 0.98, cut for the lowest 2% near 0.23. Only a selection was taken, and the lowest values are over-represented in it overall.
Assign labels as follows, please: criterion met for cell viability below 1; criterion not met for cell viability equal to or exceeding 1.

Previously resolved entries follow.
* CC(C)CC(CC(=O)NO)C(=O)N[C@@H](Cc1ccc2ccccc2c1)C(=O)N[C@@H](C)C(=O)NCCN (some centres not stated) | criterion not met
* O=C(NNc1nc2cc(F)ccc2n2cccc12)c1cnccn1 | criterion met
* CC(C)NCCCn1c(Sc2cc3c(cc2I)OCO3)nc2c(N)ncnc21 | criterion met
* COC(=O)[C@H](Cc1ccccc1)NC(=O)[C@@H](N)CC(=O)O [Aspartame] | criterion not met
* CC(C)c1noc(N2CCC(COc3ccc(-c4ccc(S(C)(=O)=O)cc4)nc3)CC2)n1 | criterion not met

# strict comparison: is reported cell viability < 1? input = COC[C@H](NC(=O)c1cnc(C)s1)C(=O)N[C@@H](COC)C(=O)N[C@@H](Cc1ccccc1)C(=O)[C@@]1(C)CO1 [Oprozomib (ONX 0912)]
criterion met

# strict comparison: is reported cell viability < 1? input = CC(C)C[C@H](NC(=O)[C@H](CCc1ccccc1)NC(=O)CN1CCOCC1)C(=O)N[C@@H](Cc1ccccc1)C(=O)N[C@@H](CC(C)C)C(=O)[C@@]1(C)CO1 [Carfilzomib (PR-171)]
criterion met

# strict comparison: is reported cell viability < 1? input = "C[C@@H]1COCCN1c1cc(C2([S@](C)(=N)=O)CC2)nc(-c2cc[nH]c3nccc2-3)n1"
criterion met

Data credit: the supplement of paper PMC9588766
